target: hCB1 (Homo sapiens, UniProt P21554); assay: bioSensAll ebBRET signaling profiling, hCB1; format: cell-based; design: host or cells: HEK293SL cells, transient PEI transfection; settings: Log [Compound] (M) -7.55284; single replicate values, FigS6a
Sequence (P21554 whole entry): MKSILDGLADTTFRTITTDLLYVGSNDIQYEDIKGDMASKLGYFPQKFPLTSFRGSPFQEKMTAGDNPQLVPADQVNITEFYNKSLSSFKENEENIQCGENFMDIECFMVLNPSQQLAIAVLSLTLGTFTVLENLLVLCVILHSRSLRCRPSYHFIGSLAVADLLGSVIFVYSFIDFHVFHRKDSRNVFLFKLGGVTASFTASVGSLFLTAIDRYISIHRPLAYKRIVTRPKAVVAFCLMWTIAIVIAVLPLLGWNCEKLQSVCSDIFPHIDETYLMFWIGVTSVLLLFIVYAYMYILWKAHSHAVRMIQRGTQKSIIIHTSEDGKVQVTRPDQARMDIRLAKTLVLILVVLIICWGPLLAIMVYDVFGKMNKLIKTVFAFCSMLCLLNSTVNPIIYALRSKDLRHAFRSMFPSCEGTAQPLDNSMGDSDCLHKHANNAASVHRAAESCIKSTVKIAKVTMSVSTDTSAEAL
Param threshold (4) applies to GoB hCB1; output YES when value >= threshold, NO when value < threshold.

[[record]]
molecule = "Cc1nc(CC2CC2)oc1-c1nc(Cc2cc3c(cc2Br)OCO3)no1 [‘7019]"
class_assignment = "NO"

[[record]]
molecule = "Cc1cc(C(=O)N(C)C(c2ccccc2)c2ccco2)nn1-c1cccc(C(F)(F)F)c1 (centres unmarked) [‘1082]"
class_assignment = "NO"

[[record]]
molecule = "Cn1nc(-c2nnc(C(C)(C)Oc3ccc(Cl)cc3)o2)c2ccccc2c1=O [‘0450]"
class_assignment = "NO"

[[record]]
molecule = "Cc1cc(C(=O)N2CC3(CCC3)[C@@H]2[C@H]2CCCO2)nn1-c1cccc(C(F)(F)F)c1 (single isomer, unassigned) [compound 430]"
class_assignment = "YES"

[[record]]
molecule = "Cc1c(C(=O)OCC2CSc3ccccc3O2)cnn1Cc1ccccc1 (centres unmarked) [‘7800]"
class_assignment = "NO"

[[record]]
molecule = "COC(=O)C(NC(=O)c1cc(C)n(-c2cccc(C(F)(F)F)c2)n1)c1cccs1 (centres unmarked) [‘60154]"
class_assignment = "YES"


Qu. State whether the measured GoB hCB1 reaches 4, counting equality as reaching it, for COC(=O)[C@@H]1[C@@H]2CCC[C@@H]2CN1C(=O)c1cc(C)n(-c2cccc(Cl)c2)n1 (racemic) [‘10010]
Ans. NO

---

biological target: hCB1 (Homo sapiens); test: bioSensAll ebBRET signaling profiling, hCB1; format: cell-based; set-up: host or cells: HEK293SL cells, transient PEI transfection; conditions: read-out: EC50 [95% CI]; hCB1 G13
MEASURED PARAMETER: pEC50
Keep in mind that pEC50 stands for -log10 of concentration in molar terms.

[[record]]
molecule = "COC(=O)C(C)(NC(=O)c1cc(C)n(-c2cccc(C(F)(F)F)c2)n1)c1cccs1 (centres unmarked)"
value_observed = 8.68


Please examine the following record next.
Qu. State pEC50 on hCB1 (Homo sapiens). Entry: COC(=O)[C@@](C)(NC(=O)c1cc(C)n(-c2cccc(C(F)(F)F)c2)n1)c1cccs1
Ans. 9.08

---

molecular target: hCB1 (Homo sapiens, UniProt P21554); assay: bioSensAll ebBRET signaling profiling, hCB1; format: cell-based; design: host or cells: HEK293SL cells, transient PEI transfection; settings: Log [Compound] (M) -11.4949; single replicate values, FigS6a
Outcome: Satisfied for GoB hCB1 of at least -2; Not satisfied for anything lower.

Example entries and their recorded answers appear below.
[[record]]
compound = "COC(=O)C(NC(=O)c1cc(C)n(-c2cccc(F)c2)n1)c1cccs1 (stereo not drawn)"
class_assignment = "Satisfied"

[[record]]
compound = "Cc1nn(Cc2ccc(Cl)cc2)c(C)c1C(=O)OCC1CSc2ccccc2O1 (stereo not drawn)"
class_assignment = "Not satisfied"

[[record]]
compound = "COC(=O)[C@@H]1[C@@H]2CCC[C@@H]2CN1C(=O)c1cc(C)n(-c2cccc(Cl)c2)n1 (racemic)"
class_assignment = "Not satisfied"

[[record]]
compound = "COc1cccc(C(NC(=O)c2cc(C)n(-c3cccc(C(F)(F)F)c3)n2)c2ccco2)c1 (stereo not drawn)"
class_assignment = "Satisfied"


Qu. Please indicate if the recorded GoB hCB1 for Cc1cc(C(=O)NC(c2ccco2)c2ccco2)nn1-c1cccc(C(F)(F)F)c1 meets or exceeds -2.
Ans. Satisfied

Qu. Check the entry Cn1nc(-c2nnc(C(C)(C)Oc3ccc(Cl)cc3)o2)c2ccccc2c1=O : does GoB hCB1 equal or exceed -2?
Ans. Not satisfied

Qu. hey, is GoB hCB1 for this one >= -2? COC(=O)C(NC(=O)c1cc(C)n(-c2cccc(C(F)(F)F)c2)n1)c1cccs1 (stereo not drawn)
Ans. Satisfied

Qu. Exam item: decide whether the reported GoB hCB1 for Cc1cc(C(=O)NC(c2ccccc2)c2ccco2)nn1-c1cccc(C(F)(F)F)c1 (stereo not drawn) is at least -2.
Ans. Satisfied

Qu. In plain terms: is recorded GoB hCB1 at least -2 for Cc1cc(C(=O)N2CC3(CCC3)[C@H]2[C@H]2CCCO2)nn1-c1cccc(C(F)(F)F)c1 ?
Ans. Satisfied

Qu. Given the entry Cc1cc(C(=O)NC(c2ccccc2)c2ccco2)nn1-c1cccc(C#N)c1 (stereo not drawn) , answer whether its GoB hCB1 meets or surpasses -2.
Ans. Satisfied

Qu. Check if GoB hCB1 >= -2 (inclusive). Item: Cc1nc(CC2CC2)oc1-c1nc(Cc2cc3c(cc2Br)OCO3)no1
Ans. Not satisfied

Qu. Entry Cc1cc(C(=O)N2CC3(CCC3)[C@@H]2[C@H]2CCCO2)nn1-c1cccc(C(F)(F)F)c1 (single isomer, unassigned) : is its GoB hCB1 no less than -2?
Ans. Satisfied

---

molecular target: hCB1 (Homo sapiens, UniProt P21554); assay: bioSensAll ebBRET signaling profiling, hCB1; type: cell-based; parameters: host or cells: HEK293SL cells, transient PEI transfection; conditions: Log [Compound] (M) -9.61989; single replicate values, FigS6a
Criterion: GoB hCB1 meeting or surpassing -2. Met: met. Not met: not met.

Here are 5 molecules together with their reported answers.
[[record]]
molecule = "Cc1cc(C(=O)N2CC3(CCC3)[C@@H]2[C@H]2CCCO2)nn1-c1cccc(C(F)(F)F)c1 (single isomer, unassigned)"
class_assignment = "met"

[[record]]
molecule = "Brc1cc2c(cc1Cc1noc(-c3cnn(CC4CC4)c3)n1)OCO2"
class_assignment = "not met"

[[record]]
molecule = "COc1cccc(C(NC(=O)c2cc(C)n(-c3cccc(C(F)(F)F)c3)n2)c2ccco2)c1 (stereo not shown)"
class_assignment = "met"

[[record]]
molecule = "Cc1cc(C(=O)N2CC3(CCC3)[C@H]2[C@H]2CCCO2)nn1-c1cccc(C(F)(F)F)c1"
class_assignment = "met"

[[record]]
molecule = "COC(=O)[C@@H]1[C@@H]2CC[C@@H]2CN1C(=O)c1cc(C)n(-c2cccc(C(F)(F)F)c2)n1"
class_assignment = "met"


Qu. Check this molecule for GoB hCB1 at or above -2: Cc1cc(C(=O)N(C)C(c2ccco2)c2ccco2)nn1-c1cccc(C(F)(F)F)c1
Ans. met

Qu. For this molecule, is measured GoB hCB1 -2 or higher? Cc1cc(C(=O)NC(c2ccccc2)c2ccco2)nn1-c1cccc(C#N)c1 (stereo not shown)
Ans. not met

---

Known GoB hCB1 of a selection of compounds
biological target: UniProt:P21554; test: bioSensAll ebBRET signaling profiling, hCB1; assay type: cell-based; set-up: host or cells: HEK293SL cells, transient PEI transfection; conditions: Log [Compound] (M) -6.31878; single replicate values, FigS6a
Lab note: write the figure by itself, no unit.

Guide cases for GoB hCB1, answers given:
[[record]]
compound = "Cc1cc(C(=O)N(C)C(c2ccccc2)c2ccco2)nn1-c1cccc(C(F)(F)F)c1 (stereo not drawn) [‘1082]"
measured_parameter = "GoB hCB1"
value_observed = -13.1203

[[record]]
compound = "COC(=O)[C@@H]1[C@@H]2CCC[C@@H]2CN1C(=O)c1cc(C)n(-c2cccc(Cl)c2)n1 (racemic) [‘10010]"
measured_parameter = "GoB hCB1"
value_observed = 27.8098


Qu. Consider the compound Cc1cc(C(=O)N2CC3(CCC3)[C@@H]2[C@H]2CCCO2)nn1-c1cccc(C(F)(F)F)c1 (single isomer, unassigned) [compound 430] and give its recorded GoB hCB1.
Ans. 1.86

Qu. Give a short answer stating reported GoB hCB1 for Cc1nc(CC2CC2)oc1-c1nc(Cc2cc3c(cc2Br)OCO3)no1 [‘7019] .
Ans. -12.489

Qu. Let me know recorded GoB hCB1 for Cc1cc(C(=O)N(C)C(c2ccco2)c2ccco2)nn1-c1cccc(C(F)(F)F)c1 [‘4388] , thanks.
Ans. -17.76

Qu. Please give the documented GoB hCB1 of Cc1cc(C(=O)N2CC3(CCC3)[C@H]2[C@H]2CCCO2)nn1-c1cccc(C(F)(F)F)c1 [‘1651]
Ans. 20.7963

---

biological target: UniProt P21554; test: bioSensAll ebBRET signaling profiling, hCB1; type: cell-based; design: host or cells: HEK293SL cells, transient PEI transfection; details: Log [Compound] (M) -8; single replicate values, FigS6a
Measured GoB hCB1 determines class: group 1 (below -5), group 2 (-5 to below 2), group 3 (2 or more)

Field: example entries. Status: answers known.
[[record]]
compound = "COC(=O)[C@@H]1[C@@H]2CCC[C@@H]2CN1C(=O)c1cc(C)n(-c2cccc(C(F)(F)F)c2)n1"
system_name = "UniProt P21554"
class_assignment = "group 3"

[[record]]
compound = "Cc1cc(C(=O)N(C)C(c2ccccc2)c2ccco2)nn1-c1cccc(C(F)(F)F)c1 (centres unmarked)"
system_name = "UniProt P21554"
class_assignment = "group 2"

[[record]]
compound = "Cc1cc(C(=O)N2CC3(CCC3)[C@H]2[C@H]2CCCO2)nn1-c1cccc(C(F)(F)F)c1"
system_name = "UniProt P21554"
class_assignment = "group 3"

[[record]]
compound = "COC(=O)C(NC(=O)c1cc(C)n(-c2cccc(F)c2)n1)c1cccs1 (centres unmarked)"
system_name = "UniProt P21554"
class_assignment = "group 2"

[[record]]
compound = "Cc1nc(CC2CC2)oc1-c1nc(Cc2cc3c(cc2Br)OCO3)no1"
system_name = "UniProt P21554"
class_assignment = "group 1"


Qu. # classify by GoB hCB1 band: COC(=O)C(NC(=O)c1cc(C)n(-c2cccc(C(F)(F)F)c2)n1)c1cccs1 (centres unmarked)
Ans. group 3

Qu. For the record Cc1nn(Cc2ccc(Cl)cc2)c(C)c1C(=O)OCC1CSc2ccccc2O1 (centres unmarked) , report the class its GoB hCB1 corresponds to.
Ans. group 1

Qu. Tag the class for Cc1c(C(=O)OCC2CSc3ccccc3O2)cnn1Cc1ccccc1 (centres unmarked)
Ans. group 2

Qu. Could you place Cn1nc(-c2nnc(C(C)(C)Oc3ccc(Cl)cc3)o2)c2ccccc2c1=O in its proper category? Many thanks.
Ans. group 1
